Assay: In vitro drug metabolism in rat liver extract
Format: in vitro ADME, male Wistar rats
Settings: pH 7.4; 60 min., rat liver extract, 37° C.; read-out: Residual amount of test compound, 60 min.
endpoint.name: remaining at 1 h

[[record]]
compound = "CC(c1ccccc1)c1ccc(-c2cnn3c(O)ncnc23)cc1 (centres unmarked) [Example 19]"
data_value = "42.4%"

[[record]]
compound = "Oc1ccnc2c(-c3ccc(Cc4ccccc4)cc3)cnn12 [Example 2]"
data_value = "80.2%"

[[record]]
compound = "COc1cccc(Cc2ccc(-c3cnn4c(O)ncnc34)cc2)c1 [Example 15]"
data_value = "51.9%"

[[record]]
compound = "Cc1cccc(Cc2ccc(-c3cnn4c(O)ncnc34)cc2)c1 [Example 13]"
data_value = "81.4%"

[[record]]
compound = "Cc1cc(-c2cnn3c(O)ccnc23)ccc1Sc1ccccc1 [Compound B1, reference compound]"
data_value = "27%"

